# Tested on: PPARg:RXRa 90nM:30nM, anti-RXR (NR concentration 90 nM, RXRa partner concentration 30 nM)
# Experimental protocol: PBM binding z-score (relative to random genomic background probes); higher = stronger binding; sequences stand for … in GC…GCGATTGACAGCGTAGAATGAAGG
Quantity kind: PBM binding z-score
Lab note: jot down the number only; don't add units.

See these solved cases before continuing.
INSERT INTO assay_data (sequence_input, recorded_measurement) VALUES
  ('CCAGACAGGTGAAAGGTAACACAGTCTGGTACGC', 6.42),
  ('TCGAGTAGGATAGTCGGGGCATTCAGCCAACATA', 0.413),
  ('CCTTACGGGTCACGAGGATATAGCACGACGAGCG', 4.99),
  ('TTACCAAGGTGAGGGTCGTTGATCCCTCTGTAGA', 1.46),
  ('ACTAGTTGGTCAACTGAGGTCACACACAATTCGG', 2.8);

Please turn your attention to the following entry.
Consider the sequence shown here: TTTCGGAGGACACGAAGGTCAGAGCTTTCCAGAG What is its recorded PBM binding z-score? 0.593

* * *

# Test system: PPARg:RXRa 270nM:90nM, anti-RXR (NR concentration 270 nM, RXRa partner concentration 90 nM)
# Experimental protocol: PBM binding z-score (relative to random genomic background probes); higher = stronger binding; sequences stand for … in GC…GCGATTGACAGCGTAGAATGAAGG
Kindly return Yes if reported PBM binding z-score is no lower than 1; return No if it is lower.

Examples from the recorded data:
INSERT INTO measurements (sequence_input, label_class) VALUES
  ('GGAACGTGGGCAAGTTGATAGCAGAGTTTGATGG', 'No'),
  ('CAAACTAGGTGAAAGGTCAAAGTCGAGCCAACCA', 'Yes');

Confirm if PBM binding z-score reported for the sequence AGAATGAGGTTAAGATCATGGAAACAGAATACAT is 1 or above. Yes

Next entry: TCTGCTAGGTCACCGATGGTCAGCTAATCTGCTA Yes

Next entry: ATCTCTAGGTAAAGATAGTACAGTGAATGCAAAT No

Next entry: ACAATGAGGTTATACGTAGATCAGGGAAGAAAGT Yes

Next entry: TCATATAGGTAAAAGGGGAAAGTCGGTGTGGTAA Yes

Next entry: TCTTGTAGATCAACAGGAGGCTAAGAAAGATCGA Yes

Next entry: GCGACTGGGGCAAAGCAGGATACCATAAGGTTGG Yes

Next entry: GGAACGAGGGCAAGTTGATAGCCGAGTTTGATGG Yes

* * *

# Test system: VDR:RXRa (NR concentration 270 nM, RXRa partner concentration 90 nM)
# Experimental protocol: PBM binding z-score (relative to random genomic background probes); higher = stronger binding; sequences stand for … in GC…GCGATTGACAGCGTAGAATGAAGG
# PBM binding z-score values compiled below
Lab note: jot down the number only; don't add units.

See these solved cases before continuing.
INSERT INTO measurements (sequence_input, recorded_measurement) VALUES
  ('TATGCAGGGTCAAAGGCCAGAGTACGAATGTCGA', 4.61),
  ('GCGACTAGGGCATCAGCAGGTTACCATAACTTAA', -0.295),
  ('GCGACTGGGGCATCAGCAGGTTACCGTAACTTAA', -0.147);

Please turn your attention to the following entry.
Consider the sequence shown here: ACTATTAGTTGAGATGAGGGCAACCGATAGGTTG What is its recorded PBM binding z-score? 0.654

* * *

# Tested on: PPARg:RXRa 270nM:90nM, anti-RXR (NR concentration 270 nM, RXRa partner concentration 90 nM)
# Experimental protocol: PBM binding z-score (relative to random genomic background probes); higher = stronger binding; sequences stand for … in GC…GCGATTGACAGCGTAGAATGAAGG
Quantity kind: PBM binding z-score
Lab note: jot down the number only; don't add units.

INSERT INTO results (sequence_input, recorded_measurement) VALUES
  ('TCTATTAGTGGATTAGGGCAACCGAAACAGCGGA', 1.68);

Consider the sequence shown here: TGTCCAAGTTCAAAGGTAACGTAAGTATCCACAC What is its recorded PBM binding z-score? 4.65

Next entry: CAAACTAGGTCACAGAGTTCAAAGTCCGTGCGTA 7.78

Next entry: CTTGCTAGGTCATGGTCAGCTAATCTACAGTATG 3.54

Next entry: CAAACTAGGTCAACAGGTCAAAGTCCGCTTCCCG 7.93

Next entry: CCTAGCAGCCCAGGGTCACTCAAGCATTTCGCTT 0.885

* * *

# PBM binding z-score values compiled below
# Test system: VDR:RXRa (NR concentration 270 nM, RXRa partner concentration 90 nM)
# Experimental protocol: PBM binding z-score (relative to random genomic background probes); higher = stronger binding; sequences stand for … in GC…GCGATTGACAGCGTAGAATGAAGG
Lab note: jot down the number only; don't add units.

See these solved cases before continuing.
INSERT INTO results (sequence_input, recorded_measurement) VALUES
  ('CCTTACGGGTCAAGATTATAGCACGGGTGGTACG', 2.9),
  ('CCAGACAGGTGAACGGTAACTCAGTCTGGTACGC', -0.205),
  ('CCTACTGGGGCAAAGGTTACCATACTCAGTACGA', 1.86),
  ('CCGACTGGGGCAAAGGTTACCATCCTCAGTACGA', 1.37),
  ('AGAATGAGGTTACCAAAGATCAGGGGAACGCTTG', 1.49);

Please turn your attention to the following entry.
Consider the sequence shown here: TCCTATAGGTAAATGCTAGGTGAAAGTCCGATCT What is its recorded PBM binding z-score? 0.359

* * *

# PBM binding z-score values compiled below
# Test system: THRa:RXRa (NR concentration 90 nM, RXRa partner concentration 90 nM)
# Experimental protocol: PBM binding z-score (relative to random genomic background probes); higher = stronger binding; sequences stand for … in GC…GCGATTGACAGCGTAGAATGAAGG
Lab note: jot down the number only; don't add units.

See these solved cases before continuing.
INSERT INTO assay_data (sequence_input, quantity_kind, recorded_measurement) VALUES
  ('CAGCCTAGGTCAGCGCCAGTATAGGAGGAACGTT', 'PBM binding z-score', 2.05),
  ('TTACCAAGGTGAAGGTCGATGATCCCTCTGTAGA', 'PBM binding z-score', 2.05),
  ('ACTAGCAGGCCAAGTTTGGGTCACCCAAACAAAG', 'PBM binding z-score', 2.96);

Please turn your attention to the following entry.
Consider the sequence shown here: CGAAATAGGTCAAGGACAGTGAATCTCCGCACGC What is its recorded PBM binding z-score? 3.1

* * *

# System: RXRa homodimer (NR concentration 180 nM)
# Experimental protocol: PBM binding z-score (relative to random genomic background probes); higher = stronger binding; sequences stand for … in GC…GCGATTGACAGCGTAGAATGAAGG
Kindly return Y if reported PBM binding z-score is no lower than 2; return N if it is lower.

Examples from the recorded data:
INSERT INTO results (sequence_input, label_class) VALUES
  ('AGTATGAGGTTATACGTAGATCAGGGAAGAAAGT', 'Y'),
  ('TCATATAGGTAATACAGGTGAAAGACGGCATCTA', 'N'),
  ('ATCTCAAGGTAAAGTTCAGTGAAAGATCGATAGA', 'N'),
  ('CTCGAAAGGTCGTTTGAGGTGAGTATACGGATAA', 'Y');

Confirm if PBM binding z-score reported for the sequence TCTCGGAGGACACGTAGGTCAGAGCTTTCCAGAG is 2 or above. N

Next entry: CAGCCTAGGTCAGGGCCATTATAGGAGGAACGTT N

Next entry: ATCGAAAGGACGACGAGGTGAGTATACACCGTTT N

Next entry: TCGAGTAGGTTAGTCGGGGCATTTAGCCAACATA N

Next entry: CAAACTAGGTCACAGAAGTCAAAGTCCGTGCGTA Y

Next entry: CCTCACGGGTCACTGACAGGTTATAGCATTTGGA Y

Next entry: ACTATTAGTTGAGACGAGGGCAACCCATAGGTTG N

* * *

# System: THRa:RXRa (NR concentration 90 nM, RXRa partner concentration 90 nM)
# Experimental protocol: PBM binding z-score (relative to random genomic background probes); higher = stronger binding; sequences stand for … in GC…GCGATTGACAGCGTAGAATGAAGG
# PBM binding z-score values compiled below
Lab note: jot down the number only; don't add units.

INSERT INTO measurements (sequence_input, quantity_kind, recorded_measurement) VALUES
  ('ACAAGCAGGCCAAGTTTGGGTCACTCAAACAAAG', 'PBM binding z-score', 2.47);

Consider the sequence shown here: CCTACTGGACCAAAAAGGTCATTGATGCCGATAA What is its recorded PBM binding z-score? 3.33

These measurements were taken from the supplement of paper PMC6555819.
